Target: human Claudin18.2 (CLDN18.2) (human, UniProt P56856 1-261)
Test: cell-based or functional assay
Catalogue of binders with associated CDC EC50
Reply numerically in nM, unit not repeated.

QUERY: Could you please provide reported CDC EC50 for chAb11 (antibody, V domains shown) VH: EVMLVESGGDLVKPGGSLKLSCAASGFTFSRYTMSWVRQTPEKRLEWVATVSVGSGNTYYLDSVKGRFTISRDNAKNTLFLQMNSLRSEDTALYYCTRLGQTQRNAVDYWGQGTSVTVSS VL: DIVMTQSPSFLSVSAGEKVTMSCKSSQSLFNGGNQKNYLAWYQQKPGQPPKLLIYGASTRDSGVPDRFTGSGSGTDFTLTISNVQAEDLAIYFCQNDHSFPLTFGAGTKLELK ? Thanks!
RESULT: 19.4

Continue with the binder presented below.
QUERY: Could you please provide reported CDC EC50 for chAb10 (antibody, V domains shown) VH: EVMLVESGGGLVKPGGSLKLSCAASGFTFSSYTMSWVRQTPEKRLEWVATISVIGGNTYYVDSVKGRFTISRDKAKNTLYLQMSSLRSEDTALYYCARLGQTQRNAMDYWGQGTSVTVSS VL: DIVMTQSPSSLSVSAGEKVTMSCKSSQSLLNSGNQKNYLAWYQQKPGQPPKLLIYGASTRESGVPDRFTGSGSGTDFTLTISSVQAEDLAVYYCQNDYSYPLTFGAGTKLELK ? Thanks!
RESULT: 2.69
